- System: intraocular pressure in rabbits
- Test description: Effects of topically administered renin inhibiting compounds on intraocular pressure of rabbits
- Format: in vivo, Male albino, New Zealand rabbits
- Stated conditions: topical 0.1 ml, 0.1% (w/v), 15 minutes after administration
- Protocol: The antiglaucoma activity of the compounds was tested by measuring the effect on intraocular pressure in rabbits as described by Tinjum, A.M., Acta Ophthalmologica, 50, 677 (1972). Male albino, New Zealand rabbits were placed in restraining devices and the intraocular pressure was measured with an applamatic tonometer. […]
Parameter measured: Mean Intraocular Pressure in mmHg (mmHg)
The response must be a number in mmHg with no trailing unit.

As a guide, the following entries are already answered.
{"columns": ["Compound", "Experimental target", "Mean Intraocular Pressure in mmHg / mmHg"],
 "data": [
  ["C=C(C[C@H](O)[C@H](CC1CCCCC1)NC(=O)C(Cc1cnc[nH]1)NC(=O)C(Cc1ccccc1)NC(=O)OC(C)(C)C)C(=O)NCCC(C)C (stereo partly drawn) [Compound IX]", "intraocular pressure in rabbits", 18.1],
  ["CC(C)C[C@H](O)[C@H](O)[C@H](CC1CCCCC1)NC(=O)[C@H](Cc1cnc[nH]1)NC(=O)[C@H](Cc1ccccc1)NC(=O)N1CCOCC1 [Compound I]", "intraocular pressure in rabbits", 16.5]
]}

Consider the record given below.
Look up Mean Intraocular Pressure in mmHg for this compound: CCOC(=O)[C@H](C)NC(Cc1ccccc1)C(=O)NC(Cc1cnc[nH]1)C(=O)N[C@@H](CC1CCCCC1)[C@@H](O)[C@@H](O)CC(C)C (stereo partly drawn) [Compound XIV]
14.0

###

- Test system: intraocular pressure in rabbits
- Test description: Effects of topically administered renin inhibiting compounds on intraocular pressure of rabbits
- Format: in vivo, Male albino, New Zealand rabbits
- Stated conditions: topical 0.1 ml, 0.1% (w/v), 5 minutes after administration
Counter-ions that a name gives are not always drawn.
A collection of compounds and their measured Mean Intraocular Pressure in mmHg
# output: bare number, implied unit mmHg

The cases that follow already have their Mean Intraocular Pressure in mmHg on record.
{"columns": ["Compound", "Experimental target", "Mean Intraocular Pressure in mmHg [mmHg]"],
 "data": [
  ["CC(C)CC(=O)NCC[C@H](O)[C@H](CC1CCCCC1)NC(=O)C(Cc1cnc[nH]1)NC(=O)C(Cc1ccccc1)NC(=O)OC(C)(C)C (stereo partly drawn)", "intraocular pressure in rabbits", 17.0],
  ["CC(C)C[C@H](O)[C@H](O)[C@H](CC1CCCCC1)NC(=O)[C@H](Cc1cnc[nH]1)NC(=O)[C@H](Cc1ccccc1)NC(=O)N1CCOCC1", "intraocular pressure in rabbits", 18.2],
  ["C=C(C[C@H](O)[C@H](CC1CCCCC1)NC(=O)C(Cc1cnc[nH]1)NC(=O)C(Cc1ccccc1)NC(=O)OC(C)(C)C)C(=O)NCCC(C)C (stereo partly drawn)", "intraocular pressure in rabbits", 22.5],
  ["CC(C)(C)OC(=O)NC(Cc1ccccc1)C(=O)NC(Cc1cnc[nH]1)C(=O)NC(CC1CCCCC1)C(O)CSC1CCCCC1 (stereo not drawn)", "intraocular pressure in rabbits", 16.5],
  ["CC(C)CC(NC(=O)C(Cc1ccccc1)NC(=O)CCCC(=O)O)C(=O)N[C@@H](CC1CCCCC1)[C@@H](O)[C@@H](O)CC(C)C (stereo partly drawn)", "intraocular pressure in rabbits", 17.6],
  ["CC[C@@H]1C(=O)OC[C@@H]1Cc1cncn1C [Pilocarpine, reference compound]", "intraocular pressure in rabbits", 14.4],
  ["CCOC(=O)[C@H](C)NC(Cc1ccccc1)C(=O)NC(Cc1cnc[nH]1)C(=O)N[C@@H](CC1CCCCC1)[C@@H](O)[C@@H](O)CC(C)C (stereo partly drawn)", "intraocular pressure in rabbits", 16.8],
  ["COc1ccc(C[C@H](NC(=O)CC(C)(C)N)C(=O)N[C@@H](Cc2cnc[nH]2)C(=O)N[C@@H](CC2CCCCC2)[C@@H](O)[C@@H](O)CC(C)C)cc1 [Compound II, di-acetic acid salt]", "intraocular pressure in rabbits", 15.0],
  ["CC(C)(C)OC(=O)NC(Cc1ccccc1)C(=O)NC(Cc1cnc[nH]1)C(=O)N[C@@H](CC1CCCCC1)[C@@H](O)[C@@H](O)CN (stereo partly drawn)", "intraocular pressure in rabbits", 20.6],
  ["C=C(C[C@H](O)[C@H](O)[C@H](CC1CCCCC1)NC(=O)C(Cc1cnc[nH]1)NC(=O)C(Cc1ccccc1)NC(=O)OC(C)(C)C)C(=O)[O-].[Na+] (stereo partly drawn)", "intraocular pressure in rabbits", 12.5]
]}

Using the record for `CC(C)C[C@H](O)[C@H](O)[C@H](CC1CCCCC1)NC(=O)[C@H](Cc1cnc[nH]1)NC(=O)[C@H](Cc1ccccc1)NC(=O)N1CCC(O)CC1` , report its Mean Intraocular Pressure in mmHg.
15.5

Query: Mean Intraocular Pressure in mmHg; subject: `CCN1C[C@@H]([C@H](O)[C@H](CC2CCCCC2)NC(=O)[C@H](Cc2cnc[nH]2)NC(=O)[C@@H](CC(=O)N(C)CCOCOCCOC)Cc2ccccc2)OC1=O`
14.5

###

- System: intraocular pressure in rabbits
- Test description: Effects of topically administered renin inhibiting compounds on intraocular pressure of rabbits
- Format: in vivo, Male albino, New Zealand rabbits
- Stated conditions: topical 0.1 ml, 0.1% (w/v), 15 minutes after administration
Where a name gives a salt, the structure may show the parent alone.
Parameter measured: Mean Intraocular Pressure in mmHg (mmHg)
Provide only the numeric value, understood in mmHg.

See these solved cases before continuing.
{"columns": ["Compound", "Mean Intraocular Pressure in mmHg / mmHg"],
 "data": [
  ["CC(C)CC(NC(=O)C(Cc1ccccc1)NC(=O)CCCC(=O)O)C(=O)N[C@@H](CC1CCCCC1)[C@@H](O)[C@@H](O)CC(C)C (stereo partly drawn)", 17.2],
  ["C=C(C[C@H](O)[C@H](O)[C@H](CC1CCCCC1)NC(=O)C(Cc1cnc[nH]1)NC(=O)C(Cc1ccccc1)NC(=O)OC(C)(C)C)C(=O)[O-].[Na+] (stereo partly drawn)", 10.3],
  ["COc1ccc(C[C@H](NC(=O)CC(C)(C)N)C(=O)N[C@@H](Cc2cnc[nH]2)C(=O)N[C@@H](CC2CCCCC2)[C@@H](O)[C@@H](O)CC(C)C)cc1 [Compound II, di-acetic acid salt]", 13.5],
  ["CC[C@@H]1C(=O)OC[C@@H]1Cc1cncn1C [Pilocarpine, reference compound]", 13.0],
  ["CC(C)(C)OC(=O)NC(Cc1ccccc1)C(=O)NC(Cc1cnc[nH]1)C(=O)NC(CC1CCCCC1)C(O)CSC1CCCCC1 (stereo not drawn)", 16.5]
]}

Next up:
Look at this compound and give its reported Mean Intraocular Pressure in mmHg. `CC(C)C[C@H](O)[C@H](O)[C@H](CC1CCCCC1)NC(=O)[C@H](Cc1cnc[nH]1)NC(=O)[C@H](Cc1ccccc1)NC(=O)N1CCC(O)CC1`
12.4

All figures here come from patent US5059589A.
